The entries below come with measured hCRHR1 EC50 (nM); HTRF cAMP assay, CHO-K1 cells stably expressing hCRHR1 values attached.
- measured.on: T1, human corticotropin-releasing hormone receptor 1 (human, UniProt P34998 24-415)
- T1 sequence (looked up): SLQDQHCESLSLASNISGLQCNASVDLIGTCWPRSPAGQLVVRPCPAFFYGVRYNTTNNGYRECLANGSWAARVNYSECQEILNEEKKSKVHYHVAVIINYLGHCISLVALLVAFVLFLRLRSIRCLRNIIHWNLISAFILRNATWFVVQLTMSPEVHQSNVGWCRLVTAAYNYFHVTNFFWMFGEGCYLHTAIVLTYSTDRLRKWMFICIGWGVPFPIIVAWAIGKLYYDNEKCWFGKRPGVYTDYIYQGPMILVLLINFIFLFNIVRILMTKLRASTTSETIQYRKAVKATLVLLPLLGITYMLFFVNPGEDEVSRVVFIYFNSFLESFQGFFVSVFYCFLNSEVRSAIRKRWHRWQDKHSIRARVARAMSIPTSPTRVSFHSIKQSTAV
- experimental.details: cell-based or functional assay
Non-standard residues stand in square brackets, D forms with d. No end group written: not given here. NMeI = CC[C@H](C)[C@H](NC)C(=O)O; lip = not defined here

Field: example entries. Status: answers known.
{"binder": "Ac-IVLSLDVPIGLLQILLEQARARAAREQAK(lip)TNAEILAEV-NH2 (not fully specified; reading uncertain) [SEQ ID NO: 8]", "measured": "560 nM"}
{"binder": "IVLSLDVPIGLLQILLEQARARAAREQATK(lip)NAEILAEV-NH2 (not fully specified; reading uncertain) [SEQ ID NO: 4]", "measured": "> 5000 nM"}

Now for another entry.
Supply measured hCRHR1 EC50 (nM); HTRF cAMP assay, CHO-K1 cells stably expressing hCRHR1 of [NMeI]VTSLDVPIGLLQILLEQEKQEKEKQQAK(lip)TNAEILAQV-NH2 (reading uncertain) [SEQ ID NO: 10 (prior art peptide)] in your reply.
68 nM
